Each recorded value in this set is attributed to ChEMBL document CHEMBL3525944.

test: Clearance in CYP2D6-humanized transgenic FVB/N mouse at 10 mg/kg, iv by LC-MS/MS analysis; format: ADME, organism-based; parameters: dose 10 mg/kg, route intravenous; conditions: in vivo
Observable: clearance

INSERT INTO assay_data (compound_structure, result) VALUES
  ('COc1ccc2[nH]cc(CCN(C)C)c2c1.O=C(O)C(=O)O', '120 mL/min/kg');

###

assay: Bioavailability in CYP2D6-humanized transgenic FVB/N mouse at 20 mg/kg, ip by LC-MS/MS analysis; format: ADME, organism-based; conditions: in vivo
Observable: bioavailability (%)

INSERT INTO measurements (compound_structure, observable, value_unit, quantitative_result) VALUES
  ('COc1ccc2[nH]cc(CCN(C)C)c2c1.O=C(O)C(=O)O', 'bioavailability', '%', 65.6);

###

assay: Tmax in wild-type FVB/N mouse at 10 mg/kg, ip by LC-MS/MS analysis; assay type: ADME, organism-based; parameters: dose 10 mg/kg, route intraperitoneal; conditions: in vivo
Observable: Tmax (min)

INSERT INTO measurements (compound_structure, observable, quantitative_result) VALUES
  ('COc1ccc2[nH]cc(CCN(C)C)c2c1.O=C(O)C(=O)O', 'Tmax', 5);

###

assay: Bioavailability in wild-type FVB/N mouse at 20 mg/kg, ip by LC-MS/MS analysis; format: ADME, organism-based; conditions: in vivo
Observable: bioavailability (%)

INSERT INTO assay_data (compound_structure, quantitative_result) VALUES
  ('COc1ccc2[nH]cc(CCN(C)C)c2c1.O=C(O)C(=O)O', 71);

###

test: Half life in CYP2D6-humanized transgenic FVB/N mouse at 2 mg/kg, iv by LC-MS/MS analysis; format: ADME, organism-based; set-up: dose 2 mg/kg, route intravenous; details: in vivo
Observable: half-life (min)

INSERT INTO assay_data (compound_structure, observable, value_unit, quantitative_result) VALUES
  ('COc1ccc2[nH]cc(CCN(C)C)c2c1.O=C(O)C(=O)O', 'half-life', 'min', 8.4);

###

experiment: Half life in CYP2D6-humanized transgenic FVB/N mouse at 10 mg/kg, iv by LC-MS/MS analysis; format: ADME, organism-based; parameters: dose 10 mg/kg, route intravenous; details: in vivo
Observable: half-life (min)

INSERT INTO results (compound_structure, quantitative_result) VALUES
  ('COc1ccc2[nH]cc(CCN(C)C)c2c1.O=C(O)C(=O)O', 12);

###

test: Half life in wild-type FVB/N mouse at 2 mg/kg, iv by LC-MS/MS analysis; format: ADME, organism-based; parameters: dose 2 mg/kg, route intravenous; settings: in vivo
Observable: half-life (min)

INSERT INTO assay_data (compound_structure, observable, quantitative_result) VALUES
  ('COc1ccc2[nH]cc(CCN(C)C)c2c1.O=C(O)C(=O)O', 'half-life', 9.2);

###

experiment: Cmax in wild-type FVB/N mouse at 10 mg/kg, ip by LC-MS/MS analysis; assay type: ADME, organism-based; set-up: dose 10 mg/kg, route intraperitoneal; settings: in vivo
Observable: Cmax (µM)

INSERT INTO assay_data (compound_structure, observable, value_unit, quantitative_result) VALUES
  ('COc1ccc2[nH]cc(CCN(C)C)c2c1.O=C(O)C(=O)O', 'Cmax', 'µM', 7);

###

system: Serum; test: Drug uptake in wild-type FVB/N mouse serum by LC-MS/MS analysis; format: ADME, cell-free; settings: read-out: Drug uptake
Observable: concentration (nM)

INSERT INTO measurements (compound_structure, observable, quantitative_result) VALUES
  ('COc1ccc2[nH]cc(CCN(C)C)c2c1.O=C(O)C(=O)O', 'concentration', 4.1);

###

test: Toxicity in mouse; type: organism-based; conditions: in vivo
Observable: LD50 (mg/kg)

INSERT INTO results (compound_structure, observable, quantitative_result) VALUES
  ('COc1ccc2[nH]cc(CCN(C)C)c2c1.O=C(O)C(=O)O', 'LD50', 48);

###

experiment: Cmax in CYP2D6-humanized transgenic FVB/N mouse at 20 mg/kg, ip by LC-MS/MS analysis; type: ADME, organism-based; parameters: dose 20 mg/kg, route intraperitoneal; conditions: in vivo
Observable: Cmax (µM)

INSERT INTO results (compound_structure, observable, quantitative_result) VALUES
  ('COc1ccc2[nH]cc(CCN(C)C)c2c1.O=C(O)C(=O)O', 'Cmax', 18.3);

###

assay: Ratio of drug level in brain to serum in CYP2D6-humanized transgenic FVB/N mouse at 20 mg/kg, ip by LC-MS/MS analysis; format: ADME, organism-based; set-up: dose 20 mg/kg, route intraperitoneal
Observable: Kp

INSERT INTO results (compound_structure, quantitative_result) VALUES
  ('COc1ccc2[nH]cc(CCN(C)C)c2c1.O=C(O)C(=O)O', 3.2);

###

test: Volume of distribution at steady state in CYP2D6-humanized transgenic FVB/N mouse at 10 mg/kg, iv by LC-MS/MS analysis; type: ADME, organism-based; set-up: dose 10 mg/kg, route intravenous; conditions: in vivo, read-out: Vdss
Observable: Vd (L/kg)

INSERT INTO assay_data (compound_structure, observable, quantitative_result) VALUES
  ('COc1ccc2[nH]cc(CCN(C)C)c2c1.O=C(O)C(=O)O', 'Vd', 1.68);
